Parameter relative IC50: see the listing below.
System: MCF-7 Tam1
Run description: relative IC50 (midpoint of fitted logistic curve, plateau may be below 50% inhibition; CellTiter-Glo viability); higher = less potent
Condition parameters: 4-OH-tamoxifen in medium 1 µM; 72 h

# Compound, Measured on, relative IC50
data = [
    ("C[C@]12CC[C@@H]3c4ccc(OC(=O)N(CCCl)CCCl)cc4CC[C@H]3[C@@H]1CC[C@@H]2O [Estramustine]", "MCF-7 Tam1", "> 990 µM"),
    ("COc1ccc(-c2cc3c(C)nc(N)nc3n([C@H]3CC[C@H](OCCO)CC3)c2=O)cn1", "MCF-7 Tam1", "0.194 µM"),
    ("COc1cc(Nc2c(C#N)cnc3cc(OCCCN4CCN(C)CC4)c(OC)cc23)c(Cl)cc1Cl [Bosutinib]", "MCF-7 Tam1", "4.02 µM"),
    ("O=C1NC(=O)[C@@H](c2cn3c4c(cccc24)CCC3)[C@@H]1c1c[nH]c2ccccc12 [Tivatinib (ARQ 197)]", "MCF-7 Tam1", "> 1 µM"),
    ("O=C(Nc1ccncc1)C(=O)c1cn(Cc2ccc(Cl)cc2)c2ccccc12 [Indibulin]", "MCF-7 Tam1", "> 10 µM"),
    ("O=C(O)C1(C(=O)O)CCC1.[NH2-].[NH2-].[Pt+2] [Carboplatin]", "MCF-7 Tam1", "> 10 µM"),
    ("CCC1=C[C@@H]2CN(C1)Cc1c([nH]c3ccccc13)[C@@](C(=O)OC)(c1cc3c(cc1OC)N(C)[C@H]1[C@@](O)(C(=O)OC)[C@H](OC(C)=O)[C@]4(CC)C=CCN5CC[C@]31[C@@H]54)C2 [Vinorelbine (tartrate)]", "MCF-7 Tam1", "> 10 µM"),
]
